Target: STAT6 (Homo sapiens, UniProt P42226)
Sequence (P42226 1-847): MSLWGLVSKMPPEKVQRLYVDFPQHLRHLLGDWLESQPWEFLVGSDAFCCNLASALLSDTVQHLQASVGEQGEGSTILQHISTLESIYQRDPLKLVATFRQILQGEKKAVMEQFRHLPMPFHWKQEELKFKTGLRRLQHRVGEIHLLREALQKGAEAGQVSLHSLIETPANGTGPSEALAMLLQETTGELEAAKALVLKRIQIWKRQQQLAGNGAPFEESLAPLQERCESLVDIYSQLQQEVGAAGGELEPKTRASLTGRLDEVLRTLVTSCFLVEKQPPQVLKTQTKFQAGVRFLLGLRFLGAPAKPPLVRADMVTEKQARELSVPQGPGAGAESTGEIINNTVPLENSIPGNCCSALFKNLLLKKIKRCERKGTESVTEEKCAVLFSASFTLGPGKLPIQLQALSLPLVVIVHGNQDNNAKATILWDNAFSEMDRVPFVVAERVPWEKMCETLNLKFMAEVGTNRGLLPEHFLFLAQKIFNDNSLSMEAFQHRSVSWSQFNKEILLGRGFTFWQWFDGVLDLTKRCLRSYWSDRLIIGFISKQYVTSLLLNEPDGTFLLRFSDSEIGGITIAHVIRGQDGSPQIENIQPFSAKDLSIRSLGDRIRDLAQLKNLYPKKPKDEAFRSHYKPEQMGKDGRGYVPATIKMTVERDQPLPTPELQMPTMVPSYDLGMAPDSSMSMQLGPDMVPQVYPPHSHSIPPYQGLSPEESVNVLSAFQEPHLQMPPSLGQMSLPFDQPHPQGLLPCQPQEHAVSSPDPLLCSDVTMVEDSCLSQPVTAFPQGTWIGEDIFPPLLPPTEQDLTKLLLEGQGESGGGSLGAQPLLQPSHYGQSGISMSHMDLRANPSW
We label by threshold. Values of Ki strictly beneath 9 µM are 1 (yes). Values of 9 µM and up are 0 (no).

1) O=P(O)(O)Oc1ccc(-c2ccc3ccccc3c2)cc1F : 0 (no)
2) Cc1cc(-c2ccc(C(F)(F)P(=O)(O)O)c(F)c2)cs1 : 0 (no)
3) O=P(O)(O)Oc1ccc(-c2ccc3ccccc3c2)cc1 : 0 (no)
4) O=P(O)(O)Oc1ccc(-c2ccccc2)cc1F : 0 (no)
5) O=P(O)(O)Oc1ccc(-c2ccccc2)cc1 [Compound 1, para‐biphenyl phosphate] : 1 (yes)

Cited source: paper PMC12087874
